For each entry below, report its F (APRIL) value.
# Tgt: T1, Murine APRIL (mouse, UniProt Q9D777 105-241, limits assumed)
# T1 sequence (looked up): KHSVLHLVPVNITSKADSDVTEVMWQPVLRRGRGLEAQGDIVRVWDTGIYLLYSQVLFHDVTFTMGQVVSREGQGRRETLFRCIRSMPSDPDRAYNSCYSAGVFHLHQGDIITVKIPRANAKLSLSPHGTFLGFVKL
# Assay text: shotgun scan, phage display
One number for each entry.

{"columns": ["Binder", "F (APRIL)"],
 "data": [
  ["SLSCRKEQGKFYDHLLRDCISCASICGQHPKQCADFCENKLR (receptor, phage library variant, format as m9) [TACI_d2 Y102D]", 0.8],
  ["SLSCRKEQGKFYDHLLRDCISCASICGQHPKQCAYFCENKLP (receptor, phage library variant, format as m9) [TACI_d2 R109P]", 1.2]
]}

Next:
Quick one: give measured F (APRIL) for SLSCRKEQGKFSDHLLRDCISCASICGQHPKQCAYFCENKLR (receptor, phage library variant, format as m9) [TACI_d2 Y79S]
31
